Below, each entry is listed alongside its reported IC50.
- target-desc: PI3K β (Homo sapiens, UniProt P42338)
- Construct: Full length p110 subunits of PI3K α, β and δ, N-terminally labeled with polyHis tag; polyHis (N)
- Sequence (P42338 whole entry): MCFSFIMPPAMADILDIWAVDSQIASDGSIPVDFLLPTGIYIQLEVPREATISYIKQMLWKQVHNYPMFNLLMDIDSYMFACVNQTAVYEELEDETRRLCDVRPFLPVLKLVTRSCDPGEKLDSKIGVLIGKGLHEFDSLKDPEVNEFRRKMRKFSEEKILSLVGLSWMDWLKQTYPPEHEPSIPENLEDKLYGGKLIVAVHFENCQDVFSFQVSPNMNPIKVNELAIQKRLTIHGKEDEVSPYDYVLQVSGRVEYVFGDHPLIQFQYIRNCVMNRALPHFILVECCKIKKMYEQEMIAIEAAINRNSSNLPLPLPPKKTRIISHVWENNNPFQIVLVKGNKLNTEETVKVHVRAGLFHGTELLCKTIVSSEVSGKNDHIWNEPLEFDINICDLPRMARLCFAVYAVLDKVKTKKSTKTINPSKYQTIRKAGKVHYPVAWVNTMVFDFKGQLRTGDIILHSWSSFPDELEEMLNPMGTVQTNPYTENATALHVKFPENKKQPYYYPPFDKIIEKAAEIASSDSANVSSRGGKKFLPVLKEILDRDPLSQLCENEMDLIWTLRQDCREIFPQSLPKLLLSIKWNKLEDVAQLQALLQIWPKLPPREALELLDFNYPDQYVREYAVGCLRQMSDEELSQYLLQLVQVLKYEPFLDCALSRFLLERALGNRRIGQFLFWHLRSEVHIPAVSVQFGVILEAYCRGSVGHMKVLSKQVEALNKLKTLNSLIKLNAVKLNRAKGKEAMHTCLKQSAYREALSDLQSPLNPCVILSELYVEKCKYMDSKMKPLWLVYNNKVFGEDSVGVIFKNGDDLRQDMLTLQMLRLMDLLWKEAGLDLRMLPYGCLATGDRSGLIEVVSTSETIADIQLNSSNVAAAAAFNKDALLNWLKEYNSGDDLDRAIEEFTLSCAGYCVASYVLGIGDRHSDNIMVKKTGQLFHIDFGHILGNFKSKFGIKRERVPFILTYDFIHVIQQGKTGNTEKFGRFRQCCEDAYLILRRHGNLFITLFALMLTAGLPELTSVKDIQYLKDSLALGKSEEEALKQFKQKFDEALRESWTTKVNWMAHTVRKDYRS
- Sequence (P27986 whole entry partner): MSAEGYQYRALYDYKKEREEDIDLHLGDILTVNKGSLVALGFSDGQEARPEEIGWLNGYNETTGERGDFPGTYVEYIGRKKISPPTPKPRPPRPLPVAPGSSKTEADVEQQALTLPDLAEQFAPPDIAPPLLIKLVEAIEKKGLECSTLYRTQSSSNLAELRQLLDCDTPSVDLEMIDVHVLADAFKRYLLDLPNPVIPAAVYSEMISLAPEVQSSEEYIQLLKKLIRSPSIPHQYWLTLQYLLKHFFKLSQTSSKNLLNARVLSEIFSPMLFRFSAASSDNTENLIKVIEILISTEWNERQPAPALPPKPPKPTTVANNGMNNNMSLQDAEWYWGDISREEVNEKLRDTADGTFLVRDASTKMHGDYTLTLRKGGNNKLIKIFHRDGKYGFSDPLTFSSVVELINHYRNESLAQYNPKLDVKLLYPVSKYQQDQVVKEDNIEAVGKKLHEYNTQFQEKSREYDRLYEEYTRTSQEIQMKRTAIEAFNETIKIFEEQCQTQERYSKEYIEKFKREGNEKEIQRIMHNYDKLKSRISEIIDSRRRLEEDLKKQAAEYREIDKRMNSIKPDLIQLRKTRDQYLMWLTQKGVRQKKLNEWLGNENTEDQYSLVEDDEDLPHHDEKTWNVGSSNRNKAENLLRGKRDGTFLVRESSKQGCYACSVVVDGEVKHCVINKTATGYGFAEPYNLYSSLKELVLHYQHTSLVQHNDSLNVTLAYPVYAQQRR
- test-protocol: In vitro PI3 kinase enzyme assay (beta), ATP loss, bioluminescence;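 further: purified p110β/p85 heterodimer with PtdIns(4,5)P2 as acceptor, incubated at room temperature, leftover ATP read by luminescence, inhibition scaled to compound-free wells with and without enzyme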
- measurement-conditions: read-out: PI3Kβ ATP loss IC50

{"columns": ["compound", "target-desc", "IC50"],
 "data": [
  ["CC(=O)Nc1nc2ccc(-c3cccc4[nH]ncc34)cc2s1 [Example 99]", "PI3K β (Homo sapiens, UniProt P42338)", "> 40 µM"],
  ["CC(=O)Nc1nc2ccc(-c3cnc(C)c(N)c3)cc2s1 [Example 142]", "PI3K β (Homo sapiens, UniProt P42338)", "> 40 µM"]
]}

Let us examine a further case.
Request the reported IC50 associated with COc1nccc(-c2ccc3nc(NC(C)=O)sc3c2)n1 [Example 51]
> 40 µM

* * *

Below, each entry is listed alongside its reported pIC50.
- target-desc: PI3K α (Homo sapiens)
- Construct: Full length p110 subunits of PI3K α, β and δ, N-terminally labeled with polyHis tag; polyHis (N)
- test-protocol: In vitro PI3 kinase enzyme assay (alpha), ATP loss, bioluminescence
- measurement-conditions: read-out: PI3Kα ATP loss IC50
Friendly reminder that pIC50 comes from taking -log10 of the concentration in mol/L.

{"columns": ["query-smiles", "pIC50"],
 "data": [
  ["COc1ccc(S(=O)(=O)Nc2cc(-c3ccc4nc(SC)sc4c3)cnc2Cl)cc1", 6.65]
]}

Request the reported pIC50 associated with CN(C)c1cc(-c2ccc3nc(NC(=O)Oc4ccccc4)sc3c2)cnc1Cl
7.46

Same question, CC(=O)c1ccc(S(=O)(=O)Nc2cc(-c3ccc4nc(N)sc4c3)cnc2Cl)cc1 this time
7.74

* * *

Below, each entry is listed alongside its reported pIC50.
- target-desc: PI3K α (Homo sapiens)
- Construct: Full length p110 subunits of PI3K α, β and δ, N-terminally labeled with polyHis tag; polyHis (N)
- test-protocol: In vitro PI3 kinase enzyme assay (alpha), ATP loss, bioluminescence
- measurement-conditions: read-out: PI3Kα ATP loss IC50
Friendly reminder that pIC50 comes from taking -log10 of the concentration in mol/L.

{"columns": ["query-smiles", "pIC50"],
 "data": [
  ["CC(=O)Nc1nc2ccc(-c3ccnc(OCCCc4ccncc4)n3)cc2s1", 7.01]
]}

What value of pIC50 on PI3K α (Homo sapiens) does CC(=O)Nc1nc2ccc(-c3ccnc(Sc4ccc(Cl)cc4)n3)cc2s1 have?
7.16

Same question, CC(=O)Nc1nc2ccc(-c3cnc(Cl)c(NS(=O)(=O)c4ccc(O)cc4)c3)cc2s1 this time
8.14

Same question, CC(=O)Nc1nc2ccc(-c3cccc4[nH]ncc34)cc2s1 this time
6.54

* * *

- target-desc: PI3K α (Homo sapiens, UniProt P42336)
- Construct: Full length p110 subunits of PI3K α, β and δ, N-terminally labeled with polyHis tag; polyHis (N)
- Sequence (P42336 whole entry, species assumed): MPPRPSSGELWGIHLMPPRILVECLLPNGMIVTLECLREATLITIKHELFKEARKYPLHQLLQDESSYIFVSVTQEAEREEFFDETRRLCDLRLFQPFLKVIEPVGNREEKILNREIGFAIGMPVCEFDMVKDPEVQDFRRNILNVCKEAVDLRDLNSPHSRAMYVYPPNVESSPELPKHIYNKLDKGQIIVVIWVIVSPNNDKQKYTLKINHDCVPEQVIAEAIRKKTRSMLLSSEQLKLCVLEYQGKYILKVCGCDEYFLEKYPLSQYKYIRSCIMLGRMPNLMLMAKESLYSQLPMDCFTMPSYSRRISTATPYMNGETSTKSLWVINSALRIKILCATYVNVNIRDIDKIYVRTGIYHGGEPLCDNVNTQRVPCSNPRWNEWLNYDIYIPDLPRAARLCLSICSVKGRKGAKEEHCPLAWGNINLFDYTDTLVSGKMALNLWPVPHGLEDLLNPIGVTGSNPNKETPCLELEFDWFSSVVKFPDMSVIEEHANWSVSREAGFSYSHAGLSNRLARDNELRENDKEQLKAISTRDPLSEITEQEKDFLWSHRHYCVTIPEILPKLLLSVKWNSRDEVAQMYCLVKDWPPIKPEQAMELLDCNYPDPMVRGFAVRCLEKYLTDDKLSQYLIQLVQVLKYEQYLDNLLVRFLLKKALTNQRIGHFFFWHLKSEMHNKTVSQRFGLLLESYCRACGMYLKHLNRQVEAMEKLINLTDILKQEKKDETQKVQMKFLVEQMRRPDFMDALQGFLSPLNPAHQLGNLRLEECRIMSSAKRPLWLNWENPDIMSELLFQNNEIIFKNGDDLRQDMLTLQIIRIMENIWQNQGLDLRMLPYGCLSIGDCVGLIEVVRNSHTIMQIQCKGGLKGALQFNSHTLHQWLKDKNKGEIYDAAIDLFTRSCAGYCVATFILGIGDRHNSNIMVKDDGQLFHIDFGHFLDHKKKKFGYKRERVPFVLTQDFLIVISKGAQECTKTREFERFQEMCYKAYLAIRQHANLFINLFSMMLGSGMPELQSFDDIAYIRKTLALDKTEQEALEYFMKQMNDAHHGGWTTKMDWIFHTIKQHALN
- Sequence (P27986 whole entry partner, species assumed): as the sequence (P27986 whole entry partner) above
- test-protocol: In vitro PI3 kinase enzyme assay (alpha), ATP loss, bioluminescence
- measurement-conditions: read-out: PI3Kα ATP loss IC50
metric-name: log10 IC50 (log10 of the value in nM)
Transform log10 | Measure IC50 | Unit nM

Previously resolved entries follow.
{"columns": ["query-smiles", "quantitative-readout"],
 "data": [
  ["CC(=O)Nc1nc2ccc(-c3cncc(OCc4ccccc4)n3)cc2s1", 1.73],
  ["CC(=O)Nc1nc2ccc(-c3ccnc(CCCc4ccccc4)n3)cc2s1", 3.44],
  ["CC(=O)Nc1nc2ccc(-c3ccnc(Sc4ccc(F)cc4)n3)cc2s1", 2.09]
]}

What value of log10 IC50 on PI3K α (Homo sapiens, UniProt P42336) does CN(C)c1cc(-c2ccc3nc(NC(=O)COc4ccccc4)sc3c2)cnc1Cl have?
1.77

Source listed as patent US7928140B2.
